Every entry's value here was drawn from ChEMBL document CHEMBL4196088.

# Test system: PANC-1
# Assay Method Text: Induction of apoptosis in human PANC1 cells assessed as accumulation at sub-G0/G1 phase at 20 uM after 48 hrs by propidium iodide staining based flow cytometry (reference value: 0.2 to 2.9%)
# Format: functional
# if value of Activity reaches 8%, tag 1; if it stays below, tag 0

[[record]]
compound = "Cl.NCC(=O)N1CCC[C@H]1COCCCCCC/C=C/c1ccc(-c2ccccc2)cc1"
assigned_class = 0

[[record]]
compound = "CCCCCCCCCCCCCCCCCCOCC(COP(=O)([O-])OCC[N+](C)(C)C)OC (configuration not stated) [EDELFOSINE]"
assigned_class = 1

[[record]]
compound = "CCCCCCCC/C=C\\CCCCCCCCOC[C@@H]1CCCN1.Cl"
assigned_class = 0

[[record]]
compound = "C(=C\\c1ccc(-c2ccccc2)cc1)/CCCCCCCCOC[C@@H]1CCCN1.Cl"
assigned_class = 0

[[record]]
compound = "CCCCCCCC/C=C\\CCCCCCCCOC[C@@H]1CCCN1C(=O)[C@@H]1CCCN1.Cl"
assigned_class = 1

[[record]]
compound = "Cl.O[C@H]1CN[C@H](COCCCCCCCC/C=C/c2ccc(Oc3ccccc3)cc2)C1"
assigned_class = 1

[[record]]
compound = "CCCCCCCCCCCCCCCCOC[C@H]1NC[C@H](O)[C@@H]1O"
assigned_class = 0

[[record]]
compound = "Cl.NCC(=O)N1CCC[C@H]1COCCCCCCCCC/C=C/c1ccc(-c2ccccc2)cc1"
assigned_class = 1

[[record]]
compound = "CCCCCC/C=C\\CCCCCCCCOC[C@H]1NC[C@H](O)[C@@H]1O"
assigned_class = 1

[[record]]
compound = "Cl.O[C@H]1CN[C@H](COCCCCCCCCC/C=C/c2ccc(Oc3ccccc3)cc2)C1"
assigned_class = 1

[[record]]
compound = "Cl.O[C@H]1CN[C@H](COCCCCCC/C=C/c2ccc(-c3ccccc3)cc2)C1"
assigned_class = 1

